# MEASUREMENT_TARGET: Plk1 (Homo sapiens, UniProt P53350)
# Sequence (P53350 20-338): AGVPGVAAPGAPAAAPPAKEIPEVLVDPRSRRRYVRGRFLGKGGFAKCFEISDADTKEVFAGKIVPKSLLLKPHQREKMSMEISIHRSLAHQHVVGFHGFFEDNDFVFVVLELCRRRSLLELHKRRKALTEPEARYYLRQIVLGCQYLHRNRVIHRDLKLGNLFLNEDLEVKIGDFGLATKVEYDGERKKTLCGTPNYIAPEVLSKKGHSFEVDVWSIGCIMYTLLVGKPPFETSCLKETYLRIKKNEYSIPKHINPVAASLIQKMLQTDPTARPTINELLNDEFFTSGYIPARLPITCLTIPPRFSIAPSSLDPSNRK
pKi: −log10 of the molar value.
For each of the compounds below, state its pKi.

Reference set, count: 2
COc1cc(C(=O)NC2CC(C)(C)N(C)C(C)(C)C2)ccc1Nc1ncc2c(n1)N(C1CCCC1)CC(C)(C)C(=O)N2C    > 8.00
COCCCNC(=O)c1ccc(Nc2ncc3c(n2)N(C2CCCC2)CC(C)(C)C(=O)N3C)c(OC)c1    > 8.00

Take each entry in turn and give its pKi.
1. CN1C(=O)C(C)(C)CN(C2CCCC2)c2nc(Nc3cccc(NS(C)(=O)=O)c3)ncc21
2. CN1C(=O)C(C)(C)CN(C2CCCC2)c2nc(Nc3cccc(-c4cccnc4)c3)ncc21

1: 7.00 to 8.00; 2: 7.00 to 8.00

Take each entry in turn and give its pKi.
1. COc1cc(C(=O)NC2CN(C)C2)ccc1Nc1ncc2c(n1)N(C1CCCC1)CC(C)(C)C(=O)N2C
2. COc1cc(C(=O)NC2CCOCC2)ccc1Nc1ncc2c(n1)N(C1CCCC1)C[C@H](C)C(=O)N2C
3. CN1C(=O)C(C)(C)CN(C2CCCC2)c2nc(Nc3cccc(NC(=O)c4ccccc4)c3)ncc21

["> 8.00", "> 8.00", "7.00 to 8.00"]
